molecules and their reported Ratio
- assayedTarget: UniProt:P15150
- Sequence (P15150 whole entry): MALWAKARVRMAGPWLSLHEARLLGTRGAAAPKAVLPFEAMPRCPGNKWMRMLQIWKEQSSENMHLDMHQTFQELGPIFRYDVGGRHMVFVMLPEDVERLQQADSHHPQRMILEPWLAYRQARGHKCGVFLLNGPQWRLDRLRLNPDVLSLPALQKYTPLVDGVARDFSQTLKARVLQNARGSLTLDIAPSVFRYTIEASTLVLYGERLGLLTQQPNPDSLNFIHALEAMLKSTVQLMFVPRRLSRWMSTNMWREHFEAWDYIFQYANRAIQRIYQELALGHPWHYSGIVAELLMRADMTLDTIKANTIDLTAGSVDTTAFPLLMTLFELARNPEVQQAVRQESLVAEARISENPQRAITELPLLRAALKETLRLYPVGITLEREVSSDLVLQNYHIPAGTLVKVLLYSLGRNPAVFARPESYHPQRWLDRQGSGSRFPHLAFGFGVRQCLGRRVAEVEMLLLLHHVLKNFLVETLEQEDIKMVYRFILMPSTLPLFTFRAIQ
- procedureDetails: Inhibition of bovine adrenal gland 11beta-hydroxylase assessed as inhibition of [14C]-deoxycorticosterone hydroxylation at 2 uM relative to metyrapone
- appliedConditions: cattle
Format: numeric value only, no unit, no commentary.

Sample records with Ratio:
- molecule: "CC(C(=O)c1cccnc1)c1ccccc1 (centres undefined)"
  Ratio: 0.19
- molecule: "CC(C)(c1cccnc1)C(O)c1cccnc1 (centres undefined)"
  Ratio: 0.65
- molecule: "C[C@@H](c1cccnc1)[C@@H](O)c1cccnc1 (relative stereo)"
  Ratio: 0.41
- molecule: "OC(c1cccnc1)C(c1ccccc1)c1cccnc1 (racemic)"
  Ratio: 0.13
- molecule: "OC(c1ccccc1)C(c1ccccc1)c1cccnc1 (centres undefined)"
  Ratio: 0.65

Entry O=C(c1cccnc1)C(c1ccccc1)c1cccnc1 (centres undefined) , system UniProt:P15150: what Ratio was measured?
0.52

Entry OC(c1cccnc1)C(c1ccccc1)c1ccccc1 (centres undefined) , system UniProt:P15150: what Ratio was measured?
0.25

Entry OC(Cc1cccnc1)c1cccnc1 (racemic) , system UniProt:P15150: what Ratio was measured?
0.1

Entry O=C(Cc1ccccc1)c1cccnc1 , system UniProt:P15150: what Ratio was measured?
0.13
